All figures here come from paper PMC10436550.

assay: Toxicokinetics, plasma LPM3480392 after intravenous administration; assay type: in vivo, Sprague Dawley (SD) rats; details: female, Sprague-Dawley, rat, plasma, intravenous, 0.6 mg/kg/day, 0.6 mg/kg/day iv; 28th dosing day; F; read-out: C2min (The 3rd dosing)
measured-quantity: concentration at 2 min (ng/mL)
Number only, in ng/mL; omit the unit.

Query (molecule): Fc1ccc([C@]2(CCNCc3cccc(Cl)c3)CCO[C@]3(CCOC3)C2)nc1 [LPM3480392] ; field requested: concentration at 2 min
68.5

* * *

Assay: Toxicokinetics, plasma LPM3480392 after intravenous administration
Format: in vivo, Sprague Dawley (SD) rats
Details: female, Sprague-Dawley, rat, plasma, intravenous, 1.2 mg/kg/day, 1.2 mg/kg/day iv; 28th dosing day; F; read-out: C2min (The 3rd dosing)
Experimental: Blood samples from animals in LPM3480392 groups were collected at predose and 2 min, 30 min, 1 h and 4 h postdose of the 1st dosing on Days 1 and 28; at 2 min and 4 h postdose of the 2nd dosing on Days 1 and 28; at 2 min, 1 h and 4 h postdose the 3rd dosing on Days 1 and 28. Animals in control group were sampled at predose and 2 min postdose of the 1st dosing on Days 1 and 28. […] TK parameters (AUC, Cmax, Tmax) were calculated by Phoenix WinNonlin (Pharsight) 8.2. […]
measured-quantity: concentration at 2 min (ng/mL)
Number only, in ng/mL; omit the unit.

Query (molecule): Fc1ccc([C@]2(CCNCc3cccc(Cl)c3)CCO[C@]3(CCOC3)C2)nc1 ; field requested: concentration at 2 min
166
